Data provenance is ChEMBL document CHEMBL4431385.

# EC90 values compiled below
Target: Nonstructural protein 5A (Hepatitis C virus)
Assay: Inhibition of HCV GT3a NS5A assessed as suppression of replicon RNA level by real-time PCR analysis
Conditions: Hepatitis C virus subtype 3a
experimental-endpoint: EC90 (nM)

molecule	assayed-target	experimental-endpoint	reported-measurement
COC(=O)N[C@H](C(=O)N1CCC[C@H]1c1ncc(-c2cc3c(c(C4CC4)c2)-c2cc4cc(-c5cnc([C@@H]6CCCN6C(=O)[C@@H](NC(=O)OC)C(C)C)[nH]5)ccc4n2CO3)[nH]1)C(C)C	Nonstructural protein 5A (Hepatitis C virus)	EC90	74
COC(=O)N[C@H](C(=O)N1CCC[C@H]1c1nc(-c2ccc3c(c2)O[C@@H](c2ccccc2)n2c-3cc3cc(-c4c[nH]c([C@@H]5CCCN5C(=O)[C@@H](NC(=O)OC)C(C)C)n4)ccc32)c[nH]1)C(C)C	Nonstructural protein 5A (Hepatitis C virus)	EC90	0.12
COC(=O)N[C@H](C(=O)N1CCC[C@H]1c1ncc(-c2cc(F)c3c(c2)O[C@@H](c2ccccc2)n2c-3c(Cl)c3cc(-c4cnc([C@@H]5CCCN5C(=O)[C@@H](NC(=O)OC)C(C)C)[nH]4)ccc32)[nH]1)C(C)C	Nonstructural protein 5A (Hepatitis C virus)	EC90	2
CCOc1cccc(C2Oc3cc(-c4cnc([C@@H]5C[C@@H](F)CN5C(=O)[C@@H](NC(=O)OC)C(C)C)[nH]4)cc(F)c3-c3cc4cc(-c5cnc([C@@H]6CCCN6C(=O)[C@@H](NC(=O)OC)C(C)C)[nH]5)ccc4n32)c1 (stereo not given in full)	Nonstructural protein 5A (Hepatitis C virus)	EC90	0.1
COC(=O)N[C@H](C(=O)N1CCC[C@H]1c1ncc(-c2cc3c(c(-c4ccccc4)c2)-c2cc4cc(-c5cnc([C@@H]6CCCN6C(=O)[C@@H](NC(=O)OC)C(C)C)[nH]5)ccc4n2CO3)[nH]1)C(C)C	Nonstructural protein 5A (Hepatitis C virus)	EC90	47
